Biological target: Cytochrome P450 3A4 (Homo sapiens) (UniProt P08684)
Sequence (P08684 whole entry, looked up): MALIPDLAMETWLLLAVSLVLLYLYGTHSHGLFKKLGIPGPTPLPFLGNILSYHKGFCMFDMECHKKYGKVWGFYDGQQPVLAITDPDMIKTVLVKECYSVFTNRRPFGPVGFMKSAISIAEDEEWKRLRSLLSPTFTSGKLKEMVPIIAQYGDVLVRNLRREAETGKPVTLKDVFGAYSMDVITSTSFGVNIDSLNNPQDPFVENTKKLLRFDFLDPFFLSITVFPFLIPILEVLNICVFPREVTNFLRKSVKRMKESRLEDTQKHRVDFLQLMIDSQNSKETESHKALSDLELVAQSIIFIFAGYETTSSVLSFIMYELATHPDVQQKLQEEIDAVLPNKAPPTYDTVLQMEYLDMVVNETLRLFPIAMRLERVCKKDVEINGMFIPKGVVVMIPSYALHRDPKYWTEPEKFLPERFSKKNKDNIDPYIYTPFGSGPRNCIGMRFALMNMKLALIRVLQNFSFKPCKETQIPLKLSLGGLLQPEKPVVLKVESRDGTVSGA
Assay: Cytochrome panel assay with activity outcomes
Conditions: recombinant CYP, pro-luciferin dealkylation, luminescence, p450-cyp3a4; series mostly up to 57.1 µM
Screen size: about 16,000 compounds; about 5,100 (32%) were called active. Another 25% or so got no clear call; they are omitted. Calls come from the whole dose curve; as a rule, active = well fitted curve in the direction sought with a large enough effect; inconclusive = small, poorly fitted or top-dose-only effect, or effect the other way; inactive = no such curve, though single readings can be large or run the other way. The list shows a part of the results.
Log the outcome using a class from active, inactive

Input line: Hi, sorry to bother you, what did the test record for CCC(C)NC(=O)NC(=O)N(C1CCCCC1)S(C)(=O)=O (stereo not given) ?
Output line: inactive

Input line: Also `Cc1cc(CNC(=O)[C@H]2C[C@@H]2[C@H](NP(=O)(c2ccccc2)c2ccccc2)c2ccccc2)nn1C` , if possible.
Output line: active

Input line: Moving on to the next molecule: `CCOC(=O)CN(c1ccccn1)S(=O)(=O)c1ccccc1`
Output line: inactive

Input line: Again, but for `Cc1ccc(Cn2cccc(NC(=O)NCc3ccccc3)c2=O)cc1`
Output line: inactive

Input line: Also need `Cc1ccc(CNC(=O)[C@H]2C[C@@H]2[C@H](NP(=O)(c2ccccc2)c2ccccc2)c2ccccc2)c(F)c1F` , thanks.
Output line: active

Input line: Ok, now `CC(=O)C[C@H](c1ccc([N+](=O)[O-])cc1)c1c(O)c2ccccc2oc1=O`
Output line: inactive

Input line: One more molecule: `CC1(C)CC(=O)C(CCCN2C(=O)c3ccccc3C2=O)C(=O)C1`
Output line: inactive

Input line: Proceed to `Nc1ccc(N2CCN(C(=O)c3ccco3)CC2)cc1`
Output line: inactive

Input line: Please answer likewise for `CCOC(=O)c1cc2sc(C)cc2n1CCCN1C(=O)c2ccccc2C1=O`
Output line: active

Input line: Check `Cc1nc(SCC(=O)NCCc2ccc(Cl)cc2)nc(C)c1C` too.
Output line: active

====

Target: Cytochrome P450 3A4 (Homo sapiens)
Test: Cytochrome panel assay with activity outcomes
Settings: recombinant CYP, pro-luciferin dealkylation, luminescence, p450-cyp3a4; series mostly up to 57.1 µM
About 5,100 (32%) of roughly 16,000 compounds were called active. Not shown: some 25% with an inconclusive outcome. The call rests on the fitted dose curve; in most records, active means well fitted curve in the direction sought with a large enough effect; inconclusive means small, poorly fitted or top-dose-only effect, or effect the other way; inactive means no such curve, though single readings can be large or run the other way. The list shows a part of the results.
Give one outcome, nothing more. List: active, inactive

Input line: // outcome(item) with item = `Fc1ccc(-c2ccnc3nc(N4CCOCC4)nn23)cc1`
Output line: inactive

Input line: Then Cc1ccc(C2C(C=Nc3c(C)n(C)n(-c4ccccc4)c3=O)=C(c3ccccc3)Oc3ccccc32)cc1 (configuration not stated) ?
Output line: inactive

Input line: Moving on to the next molecule: `CS(=O)(=O)Nc1cccc(-c2ccc3ncnc(NC4CC4)c3c2)c1`
Output line: active

Input line: Can you check `Nc1ccc(S(=O)(=O)Nc2nccs2)cc1` next?
Output line: inactive

Input line: Another molecule to look at: `Cc1noc(C)c1-c1nc(NCCN2CCOCC2)c2ccccc2n1`
Output line: active

Input line: Now consider `Cc1ccc(C)c(-n2c(CNC(=O)c3ccco3)nnc2SCC(=O)N2CCc3ccccc32)c1` and answer again.
Output line: active

Input line: Thanks! And Cc1cc([N+](=O)[O-])ccc1-c1ccc(C2Nc3ccccc3C(=O)N2O)o1 (configuration not stated) ?
Output line: active

Input line: Can you check `O=C(Cn1cnc2ccccc2c1=O)Nc1nnc(SCc2ccccc2)s1` next?
Output line: inactive

Input line: And for `CN1CCN(c2ccc([N+](=O)[O-])cc2S(=O)(=O)N2CCOCC2)CC1` ?
Output line: inactive

Input line: Do the same for `CN(C)S(=O)(=O)c1cc([N+](=O)[O-])ccc1N1CCCCCC1` please
Output line: active

Input line: Repeat for the following molecule: `CS(=O)(=O)Nc1cccc(-c2ccc3ncnc(NC4CCNCC4)c3c2)c1`
Output line: inactive

Input line: Record: COc1ccc(N2CC(C(=O)OCC(=O)c3cccc(OC)c3)CC2=O)cc1 (configuration not stated)
Output line: active

Input line: Follow-up entry: `Cn1c(OCc2ccc3c(c2)OCO3)nc2c1c(=O)n(Cc1ccc(Cl)c(Cl)c1)c(=O)n2C`
Output line: active

Input line: Can you check O=C1C(Cc2ccccc2)C(c2ccccc2)N1c1ccccc1 (configuration not stated) next?
Output line: inactive

Input line: Record: O=C1C2ON(c3ccccc3)C(c3ccncc3)C2C(=O)N1c1ccccc1 (configuration not stated)
Output line: active

Input line: // same read-out, input: `CS(=O)(=O)Nc1cccc(-c2ccc3ncnc(Nc4ccc(F)cc4)c3c2)c1`
Output line: active

Input line: Quick one: `O=C(CCN1C(=O)S/C(=C\c2ccccc2)C1=O)Nc1ccc(S(=O)(=O)Nc2nccs2)cc1`
Output line: active

Input line: Same for `CNc1ncnc2ccc(-c3cccc(NS(C)(=O)=O)c3)cc12`
Output line: active

Input line: Entry `CN1CCN(c2ccc([N+](=O)[O-])cc2C(=O)N2CCOCC2)CC1` please
Output line: inactive

Input line: Same again, this time with CCC(c1nnnn1CC1CCCO1)N(CCN1CCOCC1)Cc1cc2cc(C)ccc2[nH]c1=O (configuration not stated)
Output line: active

Input line: Another molecule: COc1ccc(C2c3c(ncn(CCN4CCOCC4)c3=N)Oc3ccc4ccccc4c32)cc1OC (configuration not stated)
Output line: active

Input line: Please do the same for `C=CCSc1nn2c(=O)c3ccccc3nc2s1` as well.
Output line: active

====

Target: Cytochrome P450 3A4 (Homo sapiens)
Assay: Cytochrome panel assay with activity outcomes
Conditions: recombinant CYP, pro-luciferin dealkylation, luminescence, p450-cyp3a4; series mostly up to 57.1 µM
Procedure: The P450 gene superfamily is involved in the metabolism and clearance of xenobiotics. This assay used various human CYP P450 isozymes to measure the dealkylation of various pro-luciferin substrates to luciferin. The luciferin is then measured by luminescence after the addition of a luciferase detection reagent. […] Inhibitors and some substrates limit the production of luciferin, and decrease measured luminescence. […] 8, Detection, 1 sec, ViewLux luminescent read […]
Screen size: about 16,000 compounds; about 5,100 (32%) were called active. Another 25% or so got no clear call; they are omitted. The list shows a part of the results.
Readout Name: AC50

Would you please look over these solved cases?
[
  {
    "Compound": "CCOc1nnc(C)c2c(C)n(-c3ccc(Cl)cc3)nc12",
    "AC50": "inactive"
  },
  {
    "Compound": "COc1cc2c(CCNC(C)=O)c[nH]c2cc1Cl",
    "AC50": "15.8 µM (active)"
  },
  {
    "Compound": "CCn1cc(-c2nnnn2-c2ccc(Cl)cc2)c(=O)c2ccccc21",
    "AC50": "12.6 µM (active)"
  },
  {
    "Compound": "O=C(O)/C=C/C(=O)Nc1ccccc1-c1ccccc1",
    "AC50": "inactive"
  }
]

Input line: Please state recorded AC50 (tested on Cytochrome P450 3A4 (Homo sapiens)) of `CSc1nc(N)c2ncn([C@H]3O[C@H](COP(=O)(O)OP(=O)(O)O)[C@@H](O)[C@@H]3O)c2n1`
Output line: inactive

====

Molecular target: Cytochrome P450 3A4 (Homo sapiens) (UniProt P08684)
Experiment: Cytochrome panel assay with activity outcomes
Settings: recombinant CYP, pro-luciferin dealkylation, luminescence, p450-cyp3a4; series mostly up to 57.1 µM
Screen size: about 16,000 compounds; about 5,100 (32%) were called active. Not shown: some 25% with an inconclusive outcome. The call rests on the fitted dose curve; in most records, active means well fitted curve in the direction sought with a large enough effect; inconclusive means small, poorly fitted or top-dose-only effect, or effect the other way; inactive means no such curve, though single readings can be large or run the other way. This is one part of the list.
In this exercise, the only acceptable responses are Y = active, N = inactive

Input line: Record lookup: outcome of this test for `Cc1cc2ccccc2c(=O)n1CC(=O)NCC(=O)N1CCCC1` ?
Output line: N

Input line: Another: CCOc1ccc(N2CC(C(=O)NCc3cccc(C)c3)CC2=O)cc1 (stereo unspecified)
Output line: Y

Input line: How about `COc1cccc(Cn2c(=O)c(CCc3ccccc3)nc3cnc(OC)nc32)c1` ?
Output line: Y

Input line: And then `Cc1cc2ccccc2n1CCNC(=O)c1ccccc1` , what is it?
Output line: Y

Input line: `Cc1ccc(S(=O)(=O)NCCn2c(C)cc3ccccc32)cc1` , same question.
Output line: Y

Input line: Can you handle CCOc1cc(NC(=S)NCC2CCCO2)c(OCC)cc1NC(=O)c1ccccc1C (stereo unspecified) next?
Output line: Y

Input line: Please do the same for `CCOc1cc(NC(=S)Nc2cccc(C)c2)c(OCC)cc1NC(=O)CC(C)C` as well.
Output line: Y

Input line: Now give it for `CN(C)C(=O)c1ccc(-c2cncnc2NCCN2CCOCC2)cc1` too.
Output line: Y

Input line: Follow-up item: Cc1scc(C(=O)NNC(=S)NCC2CCCO2)c1C (stereo unspecified)
Output line: N

Input line: One more molecule: `COc1cccc(Cn2c(=O)c(CCc3ccccc3)nc3cncnc32)c1`
Output line: Y

Input line: Try this molecule too: `O=C(NCCN1CCCCC1)c1ccc(I)cc1`
Output line: N
